Values compiled from PubChem BioAssay (NCI).

tested on: HCT-116 colon; assay: NCI-60 one-dose screen, 48 h (100 = growth as untreated, 0 = no growth, -100 = all killed); conditions: 10 µM unless noted
Compounds without any hit were thinned out: in the full panel of roughly 83,000, 20% have a hit.
Property Label: growth (%)
State just the number; it will be interpreted in %.

// worked examples, growth included
* [N-]=[N+]=CC(=O)CCC(=O)C=[N+]=[N-] | 102
* CCC(Br)(CC)C(=O)NC(N)=O | 93

Endpoint output: growth of Cc1nc2ccccc2c(=O)n1-c1ccccc1F . Value?
98.7

// query growth value for entry CCC(=O)C(CC(C)N1CCCCCC1)(c1ccccc1)c1ccccc1 (configuration not stated)
72.1

May I ask what growth has been recorded for Cc1cc(Br)c([N+](=O)[O-])cc1[N+](=O)[O-] ?
20.5

Which measured growth value corresponds to COc1ccc(C(C#N)C(C)=O)cc1 (configuration not stated) ?
105

Which growth value belongs to CC1=CC(=Nc2ccc(N(CCCl)CCCl)cc2)C=C(C)C1=O ?
7.59

Reported growth, compound O=C(O)C(F)F : ____
107

Query (compound): CCCCS(=O)(=O)Cl ; field requested: growth
97.6

I have this compound here, C=CC[PH+](c1ccccc1)c1ccccc1.C=CC[PH+](c1ccccc1)c1ccccc1.[Pt+2].[S-]c1nc2ccccc2[nH]1.[S-]c1nc2ccccc2[nH]1 , and I need its recorded growth.
-29.7

Reported growth, compound C[Se]/C=C1/C(=O)N(c2c(Cl)cccc2Cl)c2ccccc21 : ____
11.4

For Cc1cc(N)ccc1N , what is its reported growth?
91.8

====

system: K-562 leukemia; assay: NCI-60 one-dose screen, 48 h; conditions: 10 µM unless noted
About 83,000 compounds went through this panel and 20% of them were active in at least one assay; those are over-represented in the sample as a whole. The source made the active and inactive calls. The calls were made as follows: active = growth percent below 10; inactive = the rest.
# valid calls are 1 (active), -1 (inactive); nothing else

Field: example entries. Status: answers known.
* COc1ccc(N)cc1OC | -1
* Oc1ccccc1C=NCCN=Cc1ccccc1O | -1
* CC[C@H](C)[C@H](NC(=O)[C@H]1CCCCN1C)C(=O)N(C)[C@H](C[C@@H](OC(C)=O)c1nc(C(=O)NC23C4C5C2C2C3C4C52C(=O)OC)cs1)C(C)C (stereo partly specified) | 1
* CCCCS(=O)(=O)Cl | -1

I would be grateful if you could indicate the recorded call for CN(C)c1ccc(C=C2C(=O)NC(=O)NC2=O)cc1 .
-1

// return assay outcome for CCC1(NC(=O)c2cc(F)c(F)c(F)c2F)C(=O)NC(=O)N(C(C)C)C1=O (stereo unspecified)
1

Give the logged outcome of this assay for the following compound: N#CC(C#N)=Cc1cccc(F)c1
-1

Record request — test call for c1ccc(CCN2CCCCC2)nc1
-1

Short answer needed: outcome of this test for COC12CC3(C)C(C4=CC(=O)OC4)CCC3(O)C3CCC4=CC(=O)CCC4(CO1)C32 (stereo unspecified) ?
-1

Hi team, can someone confirm the assay call for O=[N+]([O-])c1ccc(P(=O)(O)O)cc1 ?
-1

What outcome does the record of this test show for C[C@]12CCc3sc(Nc4ccc(O)cc4)nc3C1=CC[C@@H]1[C@@H]2CC[C@]2(C)C(=O)CC[C@@H]12 ?
-1
